target: TLR7 and TLR8 (Homo sapiens) (UniProt Q9NYK1+Q9NR97); experiment: Agonist activity at TLR7/TLR8 in human PBMC assessed as IFN alpha level; type: cell-based
Sequence (Q9NYK1 whole entry): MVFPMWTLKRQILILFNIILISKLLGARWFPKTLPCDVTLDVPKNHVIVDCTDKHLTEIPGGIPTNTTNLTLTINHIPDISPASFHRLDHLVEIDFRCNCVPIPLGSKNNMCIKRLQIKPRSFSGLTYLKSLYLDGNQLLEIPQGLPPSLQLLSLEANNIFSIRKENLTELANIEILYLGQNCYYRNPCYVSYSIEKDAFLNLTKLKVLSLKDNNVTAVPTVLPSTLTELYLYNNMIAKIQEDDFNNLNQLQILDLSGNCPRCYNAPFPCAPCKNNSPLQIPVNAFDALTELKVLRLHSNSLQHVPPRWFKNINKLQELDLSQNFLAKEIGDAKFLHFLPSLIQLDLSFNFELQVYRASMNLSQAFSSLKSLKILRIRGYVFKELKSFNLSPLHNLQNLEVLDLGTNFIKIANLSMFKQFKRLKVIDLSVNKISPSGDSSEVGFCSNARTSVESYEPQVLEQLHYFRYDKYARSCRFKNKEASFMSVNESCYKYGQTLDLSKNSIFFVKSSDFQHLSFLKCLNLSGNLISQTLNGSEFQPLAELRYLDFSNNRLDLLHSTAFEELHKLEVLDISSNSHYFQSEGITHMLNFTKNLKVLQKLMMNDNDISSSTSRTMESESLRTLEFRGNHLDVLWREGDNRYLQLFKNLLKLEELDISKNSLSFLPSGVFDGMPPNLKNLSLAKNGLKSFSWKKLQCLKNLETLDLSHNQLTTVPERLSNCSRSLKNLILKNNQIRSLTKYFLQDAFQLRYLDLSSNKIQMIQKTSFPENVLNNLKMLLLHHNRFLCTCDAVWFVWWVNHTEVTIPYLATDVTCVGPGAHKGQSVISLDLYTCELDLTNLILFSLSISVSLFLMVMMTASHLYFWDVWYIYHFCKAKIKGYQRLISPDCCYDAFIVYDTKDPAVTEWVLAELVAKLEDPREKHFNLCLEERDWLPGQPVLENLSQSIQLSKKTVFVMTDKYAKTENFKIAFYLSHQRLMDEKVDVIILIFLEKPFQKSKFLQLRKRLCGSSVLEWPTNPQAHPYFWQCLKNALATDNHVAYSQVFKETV
Known ECmax of a selection of molecules
Number in µM, nothing else.

In the examples that follow, each entry is paired with its recorded ECmax.
- Mol: "COCCOc1nc(N)c2[nH]c(=O)n(Cc3ccccc3)c2n1"
  Quantity Name: "ECmax"
  Data Value: 0.08
- Mol: "CCC[C@H](C)Oc1nc(N)c2[nH]c(=O)n(CC3CCN(CCO)CC3)c2n1"
  Quantity Name: "ECmax"
  Data Value: 0.08
- Mol: "CCCCOc1nc(N)c2[nH]c(=O)n(CC3CCN(CCO)CC3)c2n1"
  Quantity Name: "ECmax"
  Data Value: 0.4

-- ask For "CCOCc1nc2c(N)nc3ccccc3c2n1CC(C)(C)O" , write its ECmax.
-- reply 10

====

biological target: TLR7 and TLR8 (Homo sapiens) (UniProt Q9NYK1+Q9NR97); experiment: Agonist activity at TLR7/TLR8 in human PBMC assessed as IFN alpha level; format: cell-based
Each entry below carries its reported MEC.
Field: numeric (µM). Do not append units.

Example entries and their recorded answers appear below.
- Mol: "CCCCOc1nc(N)c2[nH]c(=O)n(CC3CCN(CCO)CC3)c2n1"
  Quantity Name: "MEC"
  Data Value: 0.4
- Mol: "CCC[C@H](C)Oc1nc(N)c2[nH]c(=O)n(CC3CCN(CCO)CC3)c2n1"
  Quantity Name: "MEC"
  Data Value: 0.016
- Mol: "COCCOc1nc(N)c2[nH]c(=O)n(Cc3ccccc3)c2n1"
  Quantity Name: "MEC"
  Data Value: 0.08

Next item in the queue.
-- ask Check TLR7 and TLR8 (Homo sapiens) (UniProt Q9NYK1+Q9NR97) data and give MEC for "CCOCc1nc2c(N)nc3ccccc3c2n1CC(C)(C)O" .
-- reply 0.08

====

biological target: Toll-like receptor 8 (Homo sapiens, UniProt Q9NR97); test: Agonist activity at human TLR8 expressed in HEK293 cells assessed as induction of NFKappaB activity after 24 hrs by SEAP reporter gene assay
Sequence (Q9NR97 whole entry): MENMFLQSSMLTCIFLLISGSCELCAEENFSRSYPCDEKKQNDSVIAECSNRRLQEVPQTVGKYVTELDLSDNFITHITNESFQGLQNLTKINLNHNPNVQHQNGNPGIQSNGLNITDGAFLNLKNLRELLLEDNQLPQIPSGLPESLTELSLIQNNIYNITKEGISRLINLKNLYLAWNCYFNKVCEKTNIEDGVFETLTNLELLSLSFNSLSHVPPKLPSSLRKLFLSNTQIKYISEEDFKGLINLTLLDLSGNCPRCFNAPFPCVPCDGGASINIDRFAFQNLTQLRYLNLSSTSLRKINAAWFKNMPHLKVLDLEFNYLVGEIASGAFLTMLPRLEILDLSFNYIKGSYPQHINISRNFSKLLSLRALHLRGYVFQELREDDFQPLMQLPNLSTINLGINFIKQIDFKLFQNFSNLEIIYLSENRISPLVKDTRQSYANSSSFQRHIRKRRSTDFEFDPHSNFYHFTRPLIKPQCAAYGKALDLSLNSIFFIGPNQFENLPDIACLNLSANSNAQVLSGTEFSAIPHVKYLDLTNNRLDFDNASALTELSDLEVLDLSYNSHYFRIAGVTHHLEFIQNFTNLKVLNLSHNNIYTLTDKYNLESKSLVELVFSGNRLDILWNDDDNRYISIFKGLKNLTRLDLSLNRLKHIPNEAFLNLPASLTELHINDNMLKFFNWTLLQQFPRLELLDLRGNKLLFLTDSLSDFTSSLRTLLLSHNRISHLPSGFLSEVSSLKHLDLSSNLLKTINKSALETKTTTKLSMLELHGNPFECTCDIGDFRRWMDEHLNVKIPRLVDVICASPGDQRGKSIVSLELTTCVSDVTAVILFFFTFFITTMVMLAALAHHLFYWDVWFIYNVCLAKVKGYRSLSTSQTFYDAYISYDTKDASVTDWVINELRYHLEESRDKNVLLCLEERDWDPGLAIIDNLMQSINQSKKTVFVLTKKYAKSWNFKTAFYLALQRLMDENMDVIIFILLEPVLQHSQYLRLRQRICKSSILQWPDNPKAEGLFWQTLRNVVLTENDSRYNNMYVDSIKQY
Quantity Name: EC50
Record the result as number plus unit.

-- ask Using known records, supply EC50 for "CCC[C@H](C)Oc1nc(N)c2[nH]c(=O)n(CC3CCN(CCO)CC3)c2n1"
-- reply 2140 nM

====

target: Toll-like receptor 7 (Homo sapiens); assay: Agonist activity at TLR7 in human PBMC assessed as induction of plasmacytoid dendritic cell maturation by measuring increase in MHC-1 level at 0.1 uM after 6 hrs by flow cytometry relative to control; format: cell-based
Quantity Name: fold change (FC)

- Mol: "CCCCOc1nc(N)c2[nH]c(=O)n(CC3CCN(CCO)CC3)c2n1"
  fold change (FC): "1.5 to 1.7"

-- ask Check the records and state fold change (FC) for "CCC[C@@H](C)Oc1nc(N)c2[nH]c(=O)n(CC3CCNCC3)c2n1"
-- reply 1.2 to 2.4

-- ask Assign fold change (FC) to the following record: "CCC[C@H](C)Oc1nc(N)c2[nH]c(=O)n(CC3CCNCC3)c2n1"
-- reply 1.2 to 2.4

-- ask // fetch fold change (FC) given entry "CCCCOc1nc(N)c2[nH]c(=O)n(CC3CCN(CCN)CC3)c2n1"
-- reply 1.5 to 1.7

-- ask Note down fold change (FC) recorded for "CCCCOc1nc(N)c2[nH]c(=O)n(CCCCCC3CCNCC3)c2n1"
-- reply 1.7 to 2.3

-- ask Determine from records and report fold change (FC) for "CCC[C@H](C)Oc1nc(N)c2[nH]c(=O)n(CCCCCC3CCNCC3)c2n1"
-- reply 1.7 to 2.3

-- ask Retrieve fold change (FC) measured for "CCCCOc1nc(N)c2[nH]c(=O)n(CC3CCNCC3)c2n1" and print it.
-- reply 1.2 to 2.4
